The reported measurements were obtained from ChEMBL document CHEMBL5357045.

# Tested on: Escherichia coli
# measurementDescription: Antibacterial activity against Escherichia coli BW25113
# Type: functional
quantity: MIC (µg/mL)
All answers are understood in µg/mL, so give the number only.

Check out these entries, answers already filled in.
{"compound": "O=c1c2cc(O)c(O)cc2oc2cc(O)c([C@@H]3O[C@H](CO)[C@@H](O)[C@H](O)[C@H]3O)c(O)c12", "unitOfMeasure": "µg/mL", "MIC": 512}
{"compound": "CC1=CC(=O)c2c(O)cccc2C1=O", "unitOfMeasure": "µg/mL", "MIC": 128}
{"compound": "CN(C)CCC=C1c2ccccc2CCc2ccccc21", "unitOfMeasure": "µg/mL", "MIC": 444}
{"compound": "CC(Cc1ccc(O)c(O)c1)C(C)Cc1ccc(O)c(O)c1 (configuration not stated) [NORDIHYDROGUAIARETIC ACID]", "unitOfMeasure": "µg/mL", "MIC": 512}

Lab note: measured MIC of CN(C)CCCN1c2ccccc2Sc2ccc(Cl)cc21 was 256

Lab note: measured MIC of O=c1c(O)c(-c2ccc(O)c(O)c2)oc2cc(O)cc(O)c12 was 1020

Lab note: measured MIC of CC(C)=CC[C@@H](O)C1=CC(=O)c2c(O)ccc(O)c2C1=O was 256
